- subject_of_test: Epidermal growth factor receptor (Homo sapiens, UniProt P00533)
- Sequence (P00533 whole entry): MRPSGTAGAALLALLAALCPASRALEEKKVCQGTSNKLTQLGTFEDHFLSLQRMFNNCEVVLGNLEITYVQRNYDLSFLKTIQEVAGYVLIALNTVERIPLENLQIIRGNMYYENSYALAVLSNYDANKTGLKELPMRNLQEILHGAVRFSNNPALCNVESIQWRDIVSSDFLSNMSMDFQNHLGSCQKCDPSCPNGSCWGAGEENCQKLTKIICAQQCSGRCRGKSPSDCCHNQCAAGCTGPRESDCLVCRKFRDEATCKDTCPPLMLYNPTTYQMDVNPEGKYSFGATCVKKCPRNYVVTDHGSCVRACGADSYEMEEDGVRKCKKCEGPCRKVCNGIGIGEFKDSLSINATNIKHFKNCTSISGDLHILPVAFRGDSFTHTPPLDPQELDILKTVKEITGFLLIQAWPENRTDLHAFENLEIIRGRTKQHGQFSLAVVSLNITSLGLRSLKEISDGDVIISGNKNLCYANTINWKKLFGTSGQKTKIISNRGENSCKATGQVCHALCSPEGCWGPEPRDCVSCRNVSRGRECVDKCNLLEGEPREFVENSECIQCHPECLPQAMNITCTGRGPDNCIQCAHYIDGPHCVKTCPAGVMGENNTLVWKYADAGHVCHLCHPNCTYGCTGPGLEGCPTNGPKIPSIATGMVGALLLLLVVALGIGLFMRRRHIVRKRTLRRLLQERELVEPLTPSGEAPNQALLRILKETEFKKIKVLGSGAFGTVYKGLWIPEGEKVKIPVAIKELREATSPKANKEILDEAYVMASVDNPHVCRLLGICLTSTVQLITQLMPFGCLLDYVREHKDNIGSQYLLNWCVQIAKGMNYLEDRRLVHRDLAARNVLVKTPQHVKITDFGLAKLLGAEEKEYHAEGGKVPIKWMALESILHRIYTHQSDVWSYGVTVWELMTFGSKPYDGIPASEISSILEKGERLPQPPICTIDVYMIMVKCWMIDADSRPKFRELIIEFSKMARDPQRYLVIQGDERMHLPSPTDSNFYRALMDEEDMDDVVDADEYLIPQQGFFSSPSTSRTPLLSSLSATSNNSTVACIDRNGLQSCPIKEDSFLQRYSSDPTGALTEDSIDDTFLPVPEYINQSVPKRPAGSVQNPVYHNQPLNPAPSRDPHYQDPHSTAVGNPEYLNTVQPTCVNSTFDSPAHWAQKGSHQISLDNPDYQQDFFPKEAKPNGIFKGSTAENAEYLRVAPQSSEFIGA
- assay_summary: Inhibition of EGF-induced EGFR phosphorylation in human A431 cells preincubated for 60 mins followed by EGF induction measured after 10 mins by ELISA
pIC50: −log10 of the molar value.
The threshold is inclusive: pIC50 of exactly 5 counts as Y; values below receive N.

COc1ccc(Sc2cccc3[nH]c4nc(N)nc(N)c4c23)cc1 = N
COc1ccc(OC)c(Sc2cccc3[nH]c4nc(N)nc(N)c4c23)c1 = Y
Nc1nc(N)c2c(n1)[nH]c1cccc(Sc3cccc4ccccc34)c12 = N
Nc1nc(N)c2c(n1)[nH]c1cccc(Sc3ccc4ccccc4c3)c12 = N

We next turn to a different compound, shown below.
Evaluate `COc1cc2cnnc(Nc3ccc(Cl)cc3F)c2cc1OC` : pIC50 at minimum 5?
Y

---

- subject_of_test: Dihydrofolate reductase (Homo sapiens, UniProt P00374)
- Sequence (P00374 whole entry): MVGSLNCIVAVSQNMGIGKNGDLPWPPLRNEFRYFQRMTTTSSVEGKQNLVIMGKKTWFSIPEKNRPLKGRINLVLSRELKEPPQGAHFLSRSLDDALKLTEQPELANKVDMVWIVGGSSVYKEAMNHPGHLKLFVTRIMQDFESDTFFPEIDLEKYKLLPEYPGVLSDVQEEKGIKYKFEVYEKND
# IC50 values compiled below

COc1ccc(Sc2cccc3[nH]c4nc(N)nc(N)c4c23)cc1 = > 30 µM

Please state recorded IC50 (tested on Dihydrofolate reductase (Homo sapiens, UniProt P00374)) of `Nc1nc(N)c2c(n1)[nH]c1cccc(Sc3ccc(Cl)cc3)c12`
> 29 µM

How about `Nc1nc(N)c2c(n1)[nH]c1cccc(Sc3cccc4ccccc34)c12` ?
> 27 µM

Likewise for `Nc1nc(N)c2c(n1)[nH]c1cccc(Sc3ccc4ccccc4c3)c12` ?
> 28 µM

Same again, this time with `COc1ccc(OC)c(Sc2cccc3[nH]c4nc(N)nc(N)c4c23)c1`
> 27 µM

---

- subject_of_test: Platelet-derived growth factor receptor beta (Homo sapiens, UniProt P09619)
- Sequence (P09619 whole entry): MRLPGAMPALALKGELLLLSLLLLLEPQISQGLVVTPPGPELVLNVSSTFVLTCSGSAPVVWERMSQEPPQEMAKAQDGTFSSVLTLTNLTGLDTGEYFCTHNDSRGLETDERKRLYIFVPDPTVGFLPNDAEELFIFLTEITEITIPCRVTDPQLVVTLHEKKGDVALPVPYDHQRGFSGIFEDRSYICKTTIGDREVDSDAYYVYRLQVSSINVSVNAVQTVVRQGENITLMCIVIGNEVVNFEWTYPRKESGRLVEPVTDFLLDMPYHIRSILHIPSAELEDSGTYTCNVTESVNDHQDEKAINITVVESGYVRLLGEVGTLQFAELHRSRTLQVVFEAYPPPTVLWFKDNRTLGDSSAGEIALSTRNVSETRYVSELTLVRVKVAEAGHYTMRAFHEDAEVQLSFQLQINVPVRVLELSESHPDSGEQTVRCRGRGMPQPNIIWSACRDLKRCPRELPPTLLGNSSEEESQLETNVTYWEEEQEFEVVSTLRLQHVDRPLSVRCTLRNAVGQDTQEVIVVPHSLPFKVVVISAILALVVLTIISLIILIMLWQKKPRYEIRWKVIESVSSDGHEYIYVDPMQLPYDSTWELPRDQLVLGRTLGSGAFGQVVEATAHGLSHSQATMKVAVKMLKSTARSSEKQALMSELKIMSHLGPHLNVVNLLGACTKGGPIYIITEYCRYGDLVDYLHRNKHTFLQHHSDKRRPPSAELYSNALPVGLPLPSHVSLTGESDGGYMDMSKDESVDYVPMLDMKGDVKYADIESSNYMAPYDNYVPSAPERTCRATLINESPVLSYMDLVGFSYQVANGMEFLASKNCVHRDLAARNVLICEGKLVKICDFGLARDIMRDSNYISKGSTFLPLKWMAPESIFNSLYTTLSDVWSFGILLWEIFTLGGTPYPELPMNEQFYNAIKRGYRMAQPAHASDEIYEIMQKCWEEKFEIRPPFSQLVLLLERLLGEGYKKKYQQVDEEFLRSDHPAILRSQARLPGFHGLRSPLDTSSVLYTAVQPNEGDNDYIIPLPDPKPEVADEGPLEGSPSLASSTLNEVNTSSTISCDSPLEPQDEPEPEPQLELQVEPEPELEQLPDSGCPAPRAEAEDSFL
- assay_summary: Inhibition of PDGF-BB-induced PDGFR-beta phosphorylation in human SF-539 cells preincubated for 60 mins followed by PDGF-BB induction measured after 10 mins by ELISA
We begin with a simple list: items and their reported IC50.
Give the quantity in µM, number only.

Some compounds with recorded IC50:
Nc1nc(N)c2c(n1)[nH]c1cccc(Sc3cccc4ccccc34)c12 = 58.2
COc1ccc(Sc2cccc3[nH]c4nc(N)nc(N)c4c23)cc1 = 60.5

For the next question, use this compound.
What value of IC50 has been reported for the following compound? `Nc1nc(N)c2c(n1)[nH]c1cccc(Sc3ccc4ccccc4c3)c12`
90.1

---

- subject_of_test: Vascular endothelial growth factor receptor 2 (Homo sapiens)
- Sequence (P35968 whole entry): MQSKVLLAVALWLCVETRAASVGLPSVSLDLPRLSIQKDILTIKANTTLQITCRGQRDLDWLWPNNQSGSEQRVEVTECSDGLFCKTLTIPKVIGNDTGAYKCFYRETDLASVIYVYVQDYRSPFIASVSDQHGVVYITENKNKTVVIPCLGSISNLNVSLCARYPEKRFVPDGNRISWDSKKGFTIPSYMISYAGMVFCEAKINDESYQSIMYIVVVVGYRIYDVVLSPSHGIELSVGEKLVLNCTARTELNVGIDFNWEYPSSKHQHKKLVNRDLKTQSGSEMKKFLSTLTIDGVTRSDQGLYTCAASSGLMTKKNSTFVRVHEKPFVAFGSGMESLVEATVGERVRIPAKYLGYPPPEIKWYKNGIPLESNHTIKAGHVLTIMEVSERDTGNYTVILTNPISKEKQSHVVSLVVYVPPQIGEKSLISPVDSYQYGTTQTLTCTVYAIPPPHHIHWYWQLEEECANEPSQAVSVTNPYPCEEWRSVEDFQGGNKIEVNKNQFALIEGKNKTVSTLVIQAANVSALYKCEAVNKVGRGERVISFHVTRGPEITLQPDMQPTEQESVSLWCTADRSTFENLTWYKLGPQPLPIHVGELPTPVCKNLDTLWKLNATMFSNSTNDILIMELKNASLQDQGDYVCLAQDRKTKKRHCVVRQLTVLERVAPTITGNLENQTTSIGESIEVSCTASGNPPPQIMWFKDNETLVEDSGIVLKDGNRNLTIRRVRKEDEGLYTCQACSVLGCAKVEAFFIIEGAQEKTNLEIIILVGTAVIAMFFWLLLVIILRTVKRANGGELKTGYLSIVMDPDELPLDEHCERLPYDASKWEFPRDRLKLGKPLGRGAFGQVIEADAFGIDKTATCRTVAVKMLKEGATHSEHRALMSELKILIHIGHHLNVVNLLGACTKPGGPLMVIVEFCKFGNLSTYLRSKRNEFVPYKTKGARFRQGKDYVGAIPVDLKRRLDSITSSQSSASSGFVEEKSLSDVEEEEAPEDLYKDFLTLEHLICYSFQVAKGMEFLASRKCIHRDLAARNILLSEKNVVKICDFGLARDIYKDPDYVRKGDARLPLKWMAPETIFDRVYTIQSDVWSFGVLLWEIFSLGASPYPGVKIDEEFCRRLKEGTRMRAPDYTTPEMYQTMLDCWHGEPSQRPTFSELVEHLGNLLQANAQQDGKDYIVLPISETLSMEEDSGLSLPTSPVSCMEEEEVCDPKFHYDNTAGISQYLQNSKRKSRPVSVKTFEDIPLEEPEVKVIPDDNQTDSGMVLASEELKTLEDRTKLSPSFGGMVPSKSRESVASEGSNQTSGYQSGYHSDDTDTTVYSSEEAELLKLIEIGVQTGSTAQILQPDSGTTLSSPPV
- assay_summary: Inhibition of VEGF-induced VEGFR2 phosphorylation in human U251 cells preincubated for 60 mins followed by VEGF induction measured after 10 mins by ELISA
parameter_measured: IC50 (µM)
Reply with just the number (in µM).

COc1ccc(OC)c(Sc2cccc3[nH]c4nc(N)nc(N)c4c23)c1 = 10.2
Nc1nc(N)c2c(n1)[nH]c1cccc(Sc3cccc4ccccc34)c12 = 193
Nc1nc(N)c2c(n1)[nH]c1cccc(Sc3ccc4ccccc4c3)c12 = 160

Next up:
Kindly state the measured IC50 obtained for `COc1ccc(Sc2cccc3[nH]c4nc(N)nc(N)c4c23)cc1` with Vascular endothelial growth factor receptor 2 (Homo sapiens).
182

---

Quick note: these are log10(IC50) numbers for system: Thymidylate synthase (Homo sapiens, UniProt P04818)
Sequence (P04818 whole entry): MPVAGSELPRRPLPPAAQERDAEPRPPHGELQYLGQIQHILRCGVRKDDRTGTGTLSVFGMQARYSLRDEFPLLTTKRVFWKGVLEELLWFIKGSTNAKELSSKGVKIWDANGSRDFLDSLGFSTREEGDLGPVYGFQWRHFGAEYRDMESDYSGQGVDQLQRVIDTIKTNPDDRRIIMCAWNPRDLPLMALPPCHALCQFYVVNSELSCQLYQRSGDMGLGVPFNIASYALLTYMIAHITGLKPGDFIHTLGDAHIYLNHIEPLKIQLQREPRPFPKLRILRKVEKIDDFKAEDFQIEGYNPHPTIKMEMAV
On a log10 scale: recorded IC50, unit nM.

Some entries whose results are on file:
Nc1nc(N)c2c(n1)[nH]c1cccc(Sc3cccc4ccccc34)c12 = 3.36
Nc1nc(N)c2c(n1)[nH]c1cccc(Sc3ccc(Cl)cc3)c12 = 2.68

Find the recorded log10(IC50) belonging to `COc1ccc(OC)c(Sc2cccc3[nH]c4nc(N)nc(N)c4c23)c1` and report it.
3.04

How about this molecule: `COc1ccc(Sc2cccc3[nH]c4nc(N)nc(N)c4c23)cc1`
2.15

Input `Nc1nc(N)c2c(n1)[nH]c1cccc(Sc3ccc4ccccc4c3)c12`
2.08
